# System: CCRF-CEM leukemia
# assay remarks: NCI tumour cell line growth inhibition, 48 h
Provide the recorded TGI for the entries that follow.

TGI measured on O=c1ccnc(SCc2ccc(Cl)cc2)[nH]1 = > 100 µM

TGI measured on N#CC(c1ccccc1)N(CCOCCOCCN(C(=O)c1cccc2ccccc12)C(C#N)c1ccccc1)C(=O)c1cccc2ccccc12 (centres undefined) = > 100 µM

TGI measured on COC1=C(OC)[C@]2(OC)c3c(O)c(OC)c4c(c3O[C@@]23O[C@@H](c2ccccc2)CC=C3C1=O)[C@@H](O)C[C@H](c1ccccc1)O4 = 0.208 µM

TGI measured on C=C(CN)CO[Si](C)(C)C(C)(C)C = > 100 µM
